experimental protocol: soluble on expression in E. coli; label from the status in PepcDB or PDB records
measured endpoint: soluble on expression in E. coli

Examples with their reported soluble on expression in E. coli follow.
primary sequence	soluble on expression in E. coli
MPANIDGTLIKDPMVLNIMLFGSDERPGETGYGRSDTMMLLSIDNRNKKLKLTSFMRDTYVNVPEWGDTKLTHAYSYGGPALAIETIERNFGIDIDRYAVVYFDTFPGIVDTLGGIEVEMTQTEADVMNESVGPEFANFTEGKNTLNGATALVYVRIRYGVGDDFGRTQRQRDFMLQVLNKVKGTRDVGTLLTLLTKILPGVTTNISVNEMAGLAGGAISSYMDYPMYQFRLPEDGAFSAVDVDAGNVLAIDDWDAAREHLQRFIYEDTVDPIYGPLEHHHHHH	soluble
MEAHGSARLSRKRKRDGSNGEPEEGEKPLKFKRCTVGLKYPAPYADQLESMEDKQYQRVTIEEARRGTPPDRPVRVYADGIFDMFHSGHARALMQAKCLFPNTHLIVGVCSDDLTHKLKGFTVMNEDERYDAVSHCRYVDEVVRNAPWTLTPEFLTKHRIDFVAHDDIPYSSADSDDVYKHIKDAGMFAPTQRTEGISTSDIITRIVRDYDVYVRRNLQRGYTAKELNVSFINEKKYNLQERVDKVKKKVKDVEEKSKEFVQKVEEKSIDLIQKWEEKSREFIGNFLQMFGPEGALKHMLKEGKGRMLQAISPRQSPSSSPTRERSPSPTFRLPFFNKTSTPSSPSSHHSSALSGYTYAARGQAISEDEEDDED	soluble
MGSDKIHHHHHHMNYLKLKQDVQAGRVAPVYFMYGTELFLMEDLIQDILSVTLSDEERDMNVSSYSLTDVPIEAALEEAETVPFFGSKRVVILKDAALFTSQKLDVEHDVKRLEQYILNPVPETVLLIMAPYEKLDERKKITKLIKKESLVLEAKPLDEGEAKAWLSSLASELQVEMDEKAIETLLGMTGLRLTQLASEMNKLALYVGEGGIIRSEDVTLLVAKTLDQNIFDLIDFAINQRTHQALSLYHELLKQKEEPLKLLALLTRQFRIMYQVKELGRRGYTPNQMAKPLKIHPYVAKLAGKKAASMSDQLLYSLIEKAADTEFAIKSGKVDKVLALELFLLTMGSRESVG	not soluble
MQAGARLARQDNAMADAPAPAPKRARAGRPPTLAAPRERILEEAARLFARSGYENSSVADLAAAIGVSKAALYHYFPTKQDIYDAIILETLAGLLQAVTREVERQREACERLRAFMVGHARYFARHHEQFVTMLIGYSGMALPERADAAQLRDRYEQLLRDLLEQGMATGTLRRLDVAATGRAVLSMLNWMVRWYKPGQGDSAEQIADGYYDLLFNGLRI	soluble
MGSDKIHHHHHHDGKFTLGAGVGVVEHPYKQYDADVYPVPVISYESENFWFHGLGGGYYLWNDTNDKLSITAYWSPMYFKPGDSDSEQMRRLDKRKSTVMAGLSYVHNTPYGFLRTTIAGDTLDNSNGINWDLAWLYRYTNGNLTLTPGIGVEWNSDNQNEYYYGVSRHESRRSGMRSYDPDSSWNPYLELSANYRFLGDWSVYGVARYTRLSDEITDSPMVDKSWSGLISTGITYTF	not soluble

Proceed to the following item.
Report soluble on expression in E. coli for MTKLTIFYDGTCPLCAKEMKALRQHDHKQEINTVDIYSDAFSAYPQINPDRANTILHALDNQGNLLLGLDVTYRAWQLVGRGWLYAPLRWPLIRPVADWLYLRFAQNRYRISYWLTGTSRCNSGRCSR
not soluble
